biological target: PI3Kδ (Homo sapiens); experiment: In vitro enzyme inhibition assay (Kinase Glo), PI3Kδ; assay type: biochemical; conditions: Test (a); human recombinant enzyme; Table A; read-out: PI3Kδ inhibition, IC50
Sequence (O00329 whole entry): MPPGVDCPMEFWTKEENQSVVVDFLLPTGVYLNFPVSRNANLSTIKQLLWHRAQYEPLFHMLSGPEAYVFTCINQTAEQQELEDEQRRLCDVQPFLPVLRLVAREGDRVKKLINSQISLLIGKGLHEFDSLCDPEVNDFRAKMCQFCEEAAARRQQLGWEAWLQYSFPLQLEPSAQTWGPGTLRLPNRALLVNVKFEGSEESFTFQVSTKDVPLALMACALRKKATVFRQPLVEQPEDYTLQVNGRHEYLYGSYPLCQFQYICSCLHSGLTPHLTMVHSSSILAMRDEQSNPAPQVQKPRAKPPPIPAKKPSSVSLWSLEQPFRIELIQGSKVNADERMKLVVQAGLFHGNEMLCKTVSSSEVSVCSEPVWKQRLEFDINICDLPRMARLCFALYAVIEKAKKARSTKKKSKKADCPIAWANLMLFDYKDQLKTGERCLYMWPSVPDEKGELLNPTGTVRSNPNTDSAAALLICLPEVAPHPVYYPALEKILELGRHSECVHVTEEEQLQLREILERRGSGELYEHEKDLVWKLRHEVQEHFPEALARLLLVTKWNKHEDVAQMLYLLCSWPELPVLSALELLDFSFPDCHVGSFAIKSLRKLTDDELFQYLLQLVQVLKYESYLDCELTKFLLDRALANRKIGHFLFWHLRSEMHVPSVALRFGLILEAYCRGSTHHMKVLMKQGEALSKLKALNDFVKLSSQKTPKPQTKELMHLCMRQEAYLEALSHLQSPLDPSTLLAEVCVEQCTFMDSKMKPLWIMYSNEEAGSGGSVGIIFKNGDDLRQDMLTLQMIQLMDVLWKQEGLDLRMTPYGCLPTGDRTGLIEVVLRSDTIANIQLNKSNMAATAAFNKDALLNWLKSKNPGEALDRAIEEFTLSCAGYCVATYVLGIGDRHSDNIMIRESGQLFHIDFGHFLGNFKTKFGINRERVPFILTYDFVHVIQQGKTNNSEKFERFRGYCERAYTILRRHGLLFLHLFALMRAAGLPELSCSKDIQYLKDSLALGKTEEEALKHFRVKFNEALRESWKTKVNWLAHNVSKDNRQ
Sequence (P27986 whole entry partner): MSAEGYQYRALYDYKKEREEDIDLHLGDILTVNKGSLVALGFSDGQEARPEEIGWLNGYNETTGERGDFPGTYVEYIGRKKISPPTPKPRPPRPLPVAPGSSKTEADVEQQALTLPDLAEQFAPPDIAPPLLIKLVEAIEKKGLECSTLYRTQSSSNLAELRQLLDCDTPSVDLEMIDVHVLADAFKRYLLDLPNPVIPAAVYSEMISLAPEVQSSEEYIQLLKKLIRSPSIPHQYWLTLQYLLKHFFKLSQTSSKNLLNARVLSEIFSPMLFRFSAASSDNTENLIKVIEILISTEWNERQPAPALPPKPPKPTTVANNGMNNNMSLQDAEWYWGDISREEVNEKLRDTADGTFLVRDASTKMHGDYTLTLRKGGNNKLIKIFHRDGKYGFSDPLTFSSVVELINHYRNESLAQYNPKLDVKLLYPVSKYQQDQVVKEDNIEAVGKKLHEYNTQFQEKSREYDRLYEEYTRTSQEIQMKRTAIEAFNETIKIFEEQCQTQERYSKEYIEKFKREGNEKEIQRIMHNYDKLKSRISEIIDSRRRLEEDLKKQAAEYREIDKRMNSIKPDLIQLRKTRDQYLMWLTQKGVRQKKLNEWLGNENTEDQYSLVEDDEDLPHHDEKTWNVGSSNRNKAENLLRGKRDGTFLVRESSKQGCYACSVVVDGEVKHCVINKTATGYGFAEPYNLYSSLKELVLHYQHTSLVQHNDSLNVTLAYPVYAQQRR
assay.metric: IC50 (nM)
Give the value, in units of nM, as a plain number.

Field: example entries. Status: answers known.
molecule | experimental.target | unit.annotation | IC50
CN(C)C(=O)c1cc(C2CCCN2c2ccc(F)cc2)c2oc(N3CCOCC3)cc(=O)c2c1 (racemic) | PI3Kδ (Homo sapiens) | nM | 19
CN(C)C(=O)c1cc(C2CCCN2c2cc(F)cc(F)c2)c2oc(N3CCOCC3)cc(=O)c2c1 (stereo not shown) | PI3Kδ (Homo sapiens) | nM | 15
O=C(c1cc([C@H]2CCCN2c2cccc(F)c2)c2oc(N3CCOCC3)cc(=O)c2c1)N1CCC1 | PI3Kδ (Homo sapiens) | nM | 6

Item C[C@@H]1CN(c2cc(=O)c3cc(C(=O)N4CCOCC4)cc(C4CCCN4c4cc(F)cc(F)c4)c3o2)CCO1 (stereo partly shown) ; assay system PI3Kδ (Homo sapiens); IC50 reported as 18

Reference source: patent US8530470B2
